- target entity: T1, Biotinylated ADDL preparations (bADDLs) (N-terminal biotin)
- T1 construct: Oligomer, number of copies not fixed; also called biotinylated ADDL antigen; high molecular weight 10% bADDL
- assay remarks: BIACORE, bADDL as antigen; column IgG1#1
# Kd per record follows
State the answer as a number, implicitly in nM.

20C2-23A, affinity matured humanized 20C2, IgG1 humanized A version (antibody, V domains shown, also called 4P1-40) VH: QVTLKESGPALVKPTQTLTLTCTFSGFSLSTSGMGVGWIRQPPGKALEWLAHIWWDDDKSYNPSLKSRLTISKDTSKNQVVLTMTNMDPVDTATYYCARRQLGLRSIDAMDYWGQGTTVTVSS VL: DVVMTQSPLSLPVTPGEPASISCRSSQSILHSNGNTYLEWYLQKPGQSPQLLIYKVSNRFSGVPDRFSGSGSGTDFTLKISRVEAEDVGVYYCHQSSKVPLTFGQGTKLEIKR ... 0.085
20C2-20A, affinity matured humanized 20C2, IgG1 humanized A version (antibody, V domains shown, also called SJ-p3-15) VH: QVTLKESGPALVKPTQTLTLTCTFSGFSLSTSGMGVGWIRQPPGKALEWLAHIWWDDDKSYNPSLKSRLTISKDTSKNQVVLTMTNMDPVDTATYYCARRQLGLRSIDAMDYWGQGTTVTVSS VL: DVVMTQSPLSLPVTPGEPASISCRSSQSILHSNGNTYLEWYLQKPGQSPQLLIYKVSNRFSGVPDRFSGSGSGTDFTLKISRVEAEDVGVYYCFQGSLFPPVFGQGTKLEIKR ... 6.9

[ask] Which Kd reading was recorded for the binder 20C2-18A, affinity matured humanized 20C2, IgG1 humanized A version (antibody, V domains shown, also called SJ-p1-9M) VH: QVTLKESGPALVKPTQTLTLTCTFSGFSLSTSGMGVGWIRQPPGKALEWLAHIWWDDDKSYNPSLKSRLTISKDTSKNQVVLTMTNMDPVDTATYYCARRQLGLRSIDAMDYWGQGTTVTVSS VL: DVVMTQSPLSLPVTPGEPASISCRSSQSILHSNGNTYLEWYLQKPGQSPQLLIYKVSNRFSGVPDRFSGSGSGTDFTLKISRVEAEDVGVYYCMQSSFVPLTFGQGTKLEIKR ?
[reply] 0.149
